Target: immobilized AChE (Electrophorus electricus, UniProt O42275)
Construct: purchased Sigma (St. Louis, MO, USA)
Sequence (O42275 24-633): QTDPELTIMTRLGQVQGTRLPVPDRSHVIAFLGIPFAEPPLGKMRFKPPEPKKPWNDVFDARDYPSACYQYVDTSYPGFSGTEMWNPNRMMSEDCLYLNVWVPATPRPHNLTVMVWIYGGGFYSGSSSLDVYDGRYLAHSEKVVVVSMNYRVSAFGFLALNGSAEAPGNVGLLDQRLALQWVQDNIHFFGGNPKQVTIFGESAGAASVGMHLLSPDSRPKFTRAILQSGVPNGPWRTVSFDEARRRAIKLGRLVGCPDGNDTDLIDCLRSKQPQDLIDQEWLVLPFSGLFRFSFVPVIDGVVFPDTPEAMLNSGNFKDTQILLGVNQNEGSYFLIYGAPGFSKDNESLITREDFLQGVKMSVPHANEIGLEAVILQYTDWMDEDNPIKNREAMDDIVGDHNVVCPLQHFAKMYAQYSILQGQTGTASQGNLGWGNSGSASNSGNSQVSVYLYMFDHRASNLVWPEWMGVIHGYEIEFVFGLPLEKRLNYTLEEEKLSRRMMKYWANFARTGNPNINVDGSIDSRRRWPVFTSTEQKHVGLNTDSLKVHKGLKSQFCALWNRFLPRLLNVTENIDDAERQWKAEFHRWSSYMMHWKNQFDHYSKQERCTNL
Test: biochemical
Type: binding
Conditions: affinity fit, 25°C; read-out: KD Affinity
quantity name: Kd (µM)
Express it in µM; write the number only.

{"columns": ["compound", "tested target", "Kd / µM"],
 "data": [
  ["C[C@@H]1O[C@@H](OC[C@H]2O[C@@H](Oc3c(-c4ccc(O)c(O)c4)oc4cc(O)cc(O)c4c3=O)[C@H](O)[C@@H](O)[C@@H]2O)[C@H](O)[C@H](O)[C@H]1O [Rutin hydrate, rutin hydrate]", "immobilized AChE (Electrophorus electricus, UniProt O42275)", 1110],
  ["C[N+](C)(C)CCOC(N)=O [Carbachol, carbachol, reference compound]", "immobilized AChE (Electrophorus electricus, UniProt O42275)", 1150],
  ["CC(=O)SCC[N+](C)(C)C.[I-] [ATCI, acetylthiocholine iodide, reference compound]", "immobilized AChE (Electrophorus electricus, UniProt O42275)", 2510]
]}

Turning now to a further record.
Reported Kd ( Oc1cccc(O)c1O [Pyrogallol, pyrogallol] ) = 119
